Numbers sourced from ChEMBL document CHEMBL1144263.

# test.target: Butyrylcholinesterase (Rattus norvegicus, UniProt Q9JKC1)
# Sequence (Q9JKC1 whole entry): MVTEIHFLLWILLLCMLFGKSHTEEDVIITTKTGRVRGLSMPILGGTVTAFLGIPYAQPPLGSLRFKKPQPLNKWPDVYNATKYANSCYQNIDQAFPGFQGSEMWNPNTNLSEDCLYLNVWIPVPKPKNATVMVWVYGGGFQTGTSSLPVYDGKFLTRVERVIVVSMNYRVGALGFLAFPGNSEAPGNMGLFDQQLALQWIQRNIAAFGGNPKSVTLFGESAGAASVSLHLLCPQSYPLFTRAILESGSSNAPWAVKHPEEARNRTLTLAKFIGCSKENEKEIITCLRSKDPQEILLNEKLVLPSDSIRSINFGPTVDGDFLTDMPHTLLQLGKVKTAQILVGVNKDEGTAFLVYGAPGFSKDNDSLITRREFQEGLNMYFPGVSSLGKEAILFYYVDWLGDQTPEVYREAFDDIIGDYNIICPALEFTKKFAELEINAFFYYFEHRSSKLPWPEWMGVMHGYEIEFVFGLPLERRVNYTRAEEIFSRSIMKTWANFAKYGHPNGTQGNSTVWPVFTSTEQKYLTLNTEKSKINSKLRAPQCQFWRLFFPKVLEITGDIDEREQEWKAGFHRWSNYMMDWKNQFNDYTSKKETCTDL
# test.name: Inhibitory concentration against butyrylcholinesterase from rat serum
reported.metric: IC50 (µM)
Output spec: scalar in µM, unitless text.

CC1=CC2Cc3[nH]c(=O)ccc3[C@@]3(C1)[C@@H]2CCCN3CCN1CCN(CC[N+]2(C(=O)CN)CCC[C@@H]3C4C=C(C)C[C@]32c2ccc(=O)[nH]c2C4)CC1 (stereo not given in full) :: 192
CC1=C[C@H]2Cc3[nH]c(=O)ccc3[C@@]3(C1)[C@@H]2CCCN3C(=O)CN1CCCN(CC(=O)N2CCC[C@@H]3[C@H]4C=C(C)C[C@]32c2ccc(=O)[nH]c2C4)CC1 :: 171
CC1=C[C@H]2Cc3[nH]c(=O)ccc3[C@@]3(C1)NCCC[C@H]23 :: 157

Proceed to the following item.
Let me know recorded IC50 for "CC1=C[C@H]2Cc3[nH]c(=O)ccc3[C@@]3(C1)[C@@H]2CCCN3CCN1CCCN(CCN2CCC[C@@H]3[C@H]4C=C(C)C[C@]32c2ccc(=O)[nH]c2C4)CC1" , thanks. 125

---

# test.target: Acetylcholinesterase (Rattus norvegicus)
reported.metric: log10(IC50) (log10 of the value in µM)
Annotation: log10 of IC50, µM basis.

CC1=C[C@H]2Cc3nc(O)ccc3[C@@]3(C1)[C@@H]2CCCN3CCN(C)CCc1ccccc1 :: 1.32
CC1=C[C@H]2Cc3[nH]c(=O)ccc3[C@@]3(C1)[C@@H]2CCCN3C(=O)CN1CCN(CC(=O)N2CCC[C@@H]3[C@H]4C=C(C)C[C@]32c2ccc(=O)[nH]c2C4)CC1 :: 0.07
CC1=C[C@H]2Cc3nc(O)ccc3[C@@]3(C1)[C@@H]2CCCN3CN1CCN(Cc2ccccc2)CC1 :: 1.50
COc1ccc(CN2CCN(CC(=O)N3CCC[C@@H]4C5C=C(C)C[C@]43c3ccc(=O)[nH]c3C5)CC2)cc1 :: 0.76
CC1=C[C@H]2Cc3[nH]c(=O)ccc3[C@@]3(C1)[C@@H]2CCCN3C(=O)CN1CCCN(CC(=O)N2CCC[C@@H]3[C@H]4C=C(C)C[C@]32c2ccc(=O)[nH]c2C4)CC1 :: -0.94

Kindly review the next compound as well.
Give log10(IC50) for "CC1=CC2Cc3[nH]c(=O)ccc3[C@@]3(C1)[C@@H]2CCCN3C(=O)CN1CCN(Cc2ccccc2)CC1" 1.52

---

# test.target: Acetylcholinesterase and butyrylcholinesterase (AChE and BChE) (Rattus norvegicus) (UniProt P37136+Q9JKC1)
# test.name: Ratio of inhibitory concentration for AChE and BChE
# Assay type: protein assay
reported.metric: Selectivity
Just the number.

CC1=CC2Cc3[nH]c(=O)ccc3[C@@]3(C1)[C@@H]2CCCN3CCN1CCN(CC[N+]2(C(=O)CN)CCC[C@@H]3C4C=C(C)C[C@]32c2ccc(=O)[nH]c2C4)CC1 (some centres undefined) :: 472

Return value of Selectivity for input "CC1=C[C@H]2Cc3[nH]c(=O)ccc3[C@@]3(C1)[C@@H]2CCCN3CCN1CCCN(CCN2CCC[C@@H]3[C@H]4C=C(C)C[C@]32c2ccc(=O)[nH]c2C4)CC1" , no commentary. 573

Supply reported Selectivity belonging to this molecule: "CC1=C[C@H]2Cc3[nH]c(=O)ccc3[C@@]3(C1)[C@@H]2CCCN3C(=O)CN1CCCN(CC(=O)N2CCC[C@@H]3[C@H]4C=C(C)C[C@]32c2ccc(=O)[nH]c2C4)CC1" 1500

---

Entries and their pIC50 values follow.
# test.target: Acetylcholinesterase (Rattus norvegicus, UniProt P37136)
# Sequence (P37136 whole entry): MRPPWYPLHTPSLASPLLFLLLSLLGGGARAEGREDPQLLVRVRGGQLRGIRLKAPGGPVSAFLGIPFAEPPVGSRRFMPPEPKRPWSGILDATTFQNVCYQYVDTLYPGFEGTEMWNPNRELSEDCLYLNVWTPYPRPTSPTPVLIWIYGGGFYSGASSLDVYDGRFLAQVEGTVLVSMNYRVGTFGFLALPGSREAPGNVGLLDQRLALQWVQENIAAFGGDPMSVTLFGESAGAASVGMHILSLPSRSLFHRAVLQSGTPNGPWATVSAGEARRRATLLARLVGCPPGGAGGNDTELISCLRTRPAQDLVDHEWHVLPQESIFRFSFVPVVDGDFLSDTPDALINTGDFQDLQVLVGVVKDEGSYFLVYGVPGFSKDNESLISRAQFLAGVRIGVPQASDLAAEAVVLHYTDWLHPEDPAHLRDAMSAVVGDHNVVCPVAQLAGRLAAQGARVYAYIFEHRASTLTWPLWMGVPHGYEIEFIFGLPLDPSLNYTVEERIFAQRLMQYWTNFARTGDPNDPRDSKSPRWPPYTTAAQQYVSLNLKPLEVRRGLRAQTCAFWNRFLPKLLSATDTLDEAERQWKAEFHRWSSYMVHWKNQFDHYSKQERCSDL
# test.name: Inhibitory concentration against acetylcholinesterase from rat cortex homogenate by ellman method was determined
Lab note — pIC50 values are minus log10 of concentrations in M.

Below, 2 compounds whose answers are already recorded.
CC1=CC2Cc3[nH]c(=O)ccc3[C@@]3(C1)[C@@H]2CCCN3C(=O)CN(C)CCCc1ccccc1 :: 5.21
CC1=CC2Cc3[nH]c(=O)ccc3[C@@]3(C1)[C@@H]2CCCN3C(=O)CN1CCN(Cc2ccc([N+](=O)[O-])cc2)CC1 :: 5.25

Entry "CC1=C[C@H]2Cc3[nH]c(=O)ccc3[C@@]3(C1)[C@@H]2CCCN3CCN1CCCN(CCN2CCC[C@@H]3[C@H]4C=C(C)C[C@]32c2ccc(=O)[nH]c2C4)CC1" needs its pIC50 filled in; supply it. 6.66

Using the record for "CC1=C[C@H]2Cc3nc(O)ccc3[C@@]3(C1)[C@@H]2CCCN3CCN1CCN(Cc2cccnc2)CC1" , state its measured pIC50. 4.57

Answer with reported pIC50 of "CC1=C[C@H]2Cc3nc(O)ccc3[C@@]3(C1)[C@@H]2CCCN3CCN(C)CCCc1ccccc1" 5.02

Give pIC50 for the following compound: "CC1=C[C@H]2Cc3nc(O)ccc3[C@@]3(C1)[C@@H]2CCCN3C(=O)N1CCN(Cc2cccnc2)CC1" 4.42

Assign pIC50 to the following record: "CC1=C[C@H]2Cc3[nH]c(=O)ccc3[C@@]3(C1)[C@@H]2CCCN3C(=O)CN(C)Cc1ccccc1" 4.29

---

# test.target: Acetylcholinesterase (Rattus norvegicus, UniProt P37136)
# Sequence (P37136 whole entry): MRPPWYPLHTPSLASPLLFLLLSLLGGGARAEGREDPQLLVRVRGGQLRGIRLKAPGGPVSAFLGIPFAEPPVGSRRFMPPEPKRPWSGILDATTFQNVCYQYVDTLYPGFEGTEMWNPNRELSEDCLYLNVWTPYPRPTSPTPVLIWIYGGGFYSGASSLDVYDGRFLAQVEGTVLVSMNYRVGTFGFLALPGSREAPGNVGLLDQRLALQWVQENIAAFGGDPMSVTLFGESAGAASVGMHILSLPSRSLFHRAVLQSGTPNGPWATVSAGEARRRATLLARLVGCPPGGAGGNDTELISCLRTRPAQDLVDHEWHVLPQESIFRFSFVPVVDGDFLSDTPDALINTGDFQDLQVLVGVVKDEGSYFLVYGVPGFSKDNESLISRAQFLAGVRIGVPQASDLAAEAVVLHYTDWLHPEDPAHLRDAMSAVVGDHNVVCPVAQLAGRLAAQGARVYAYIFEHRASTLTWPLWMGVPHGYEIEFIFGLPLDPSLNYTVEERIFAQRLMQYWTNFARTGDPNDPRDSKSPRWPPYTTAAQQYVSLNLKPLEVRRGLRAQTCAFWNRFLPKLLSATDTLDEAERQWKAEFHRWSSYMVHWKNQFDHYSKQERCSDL
reported.metric: IC50 (µM)
Only the number, expressed in µM, is required.

Example entries begin here.
CC1=CC2Cc3[nH]c(=O)ccc3[C@@]3(C1)[C@@H]2CCCN3C(=O)CN(C)CCc1ccccc1 :: 23.5
CC1=C[C@H]2Cc3nc(O)ccc3[C@@]3(C1)[C@@H]2CCCN3CCN(C)Cc1ccccc1 :: 66.5
CC1=CC2Cc3[nH]c(=O)ccc3[C@@]3(C1)[C@@H]2CCCN3CCN1CCN(CC[N+]2(C(=O)CN)CCC[C@@H]3C4C=C(C)C[C@]32c2ccc(=O)[nH]c2C4)CC1 (stereo partly specified) :: 0.407

Please turn your attention to the following entry.
Give the reported value of IC50 for this record: "COc1ccc(CN2CCN(CN3CCC[C@@H]4[C@H]5C=C(C)C[C@]43c3ccc(O)nc3C5)CC2)cc1" 10.3
